# Protocol description: Caco2 (A-B/B-A) permeability
# Assay type: in vitro ADME
# Assay conditions: human, Caco-2, pH 7.4, apical-to-basolateral, 5 μM, HBSS pH 7.4, 120 min, 37° C.; read-out: Caco2 A-B apparent permeability (Papp)
Lab note: anything with Papp A→B at 120 min, 5 μM below 5 ×10⁻⁶ cm/s is marked label 1; values at 5 ×10⁻⁶ cm/s or higher are marked label 0.

                                   molecule  classification
0  CCc1cc2ncc([C@H](C)N3CC[C@@H](Oc4ccc(C(=O)NC)nc4)C3)cc2[nH]c1=O (single isomer, unassigned)         label 1
1  CCc1cc2ncc(CN3CC(Oc4ccc(C(=O)NC)nc4)C3)cc2[nH]c1=O         label 1
2  CCc1cc2ncc(CN3CCC(Oc4ccc(C(=O)NC)nc4)C3)cc2[nH]c1=O (stereo not shown)         label 1
3  CCc1nc2ccc(C(C)N3CC(Oc4ccc(C(=O)NC)nc4F)C3)c(F)c2[nH]c1=O (stereo not shown)         label 0
4  CCc1nc2ccc(C(C)N3CC(Oc4ccc(C(=O)NC)nc4)C3)cc2[nH]c1=O (stereo not shown)         label 0
5  CCc1cc2ncc([C@@H](C)N3CC(Oc4ccc(C(=O)NC)nc4F)C3)cc2[nH]c1=O (single isomer, unassigned; enantiomer 1)         label 1
6  CCc1cc2cnc(C(C)N3CC(Oc4ccc(C(=O)NC)nc4)C3)cc2[nH]c1=O (stereo not shown)         label 0
